tested-on: Axl kinase (Homo sapiens)
Construct: endogenous in cells
experiment-description: Phospho-Akt in-cell Western assay (Axl antibody cross-linking, Hela cells)
experimental-setup: phospho-Akt readout, read-out: IC50, inhibition of Axl kinase
recorded-metric: IC50

Returns the measured IC50 for the input compound. Input: NC(=O)C1C2C=CC(C2)C1Nc1nc(Nc2cccc(OCc3cccnc3)c2)nc2[nH]cnc12 (racemic) [Compound 226]
< 5 µM

Returns the measured IC50 for the input compound. Input: NC(=O)[C@H]1C2C=CC(C2)[C@H]1Nc1nc(Nc2ccc(OCCN3CCCC3)cc2)nc2cc(C(F)(F)F)sc12 (stereo partly shown) [Compound 210]
> 10 µM

Returns the measured IC50 for the input compound. Input: NC(=O)C1C2CC(C1Nc1nc(Nc3ccc(N4CCOCC4)cc3)nc3[nH]ccc13)C1ON=C(c3ccccc3)C21 (racemic) [Compound 219]
> 10 µM

Returns the measured IC50 for the input compound. Input: NC(=O)C1C2C=CC(C2)C1Nc1nc(Nc2cccc(OCc3cccnc3)c2)nc2[nH]ccc12 (racemic) [Compound 225]
< 5 µM

Returns the measured IC50 for the input compound. Input: CONC(=O)Cc1ccc(Nc2nc(NC3C4C=CC(C4)C3C(N)=O)c3cc[nH]c3n2)cc1 (racemic) [Compound 227]
> 10 µM

Next:
Returns the measured IC50 for the input compound. Input: COc1cc(Nc2nc(NC3C4C=CC(C4)C3C(N)=O)c3scc(C)c3n2)cc(OC)c1OC (racemic) [Compound 238]
> 10 µM

Returns the measured IC50 for the input compound. Input: Cc1csc2c(NC3C4C=CC(C4)C3C(N)=O)nc(Nc3ccc4[nH]ccc4c3)nc12 (racemic) [Compound 239]
> 10 µM

====

tested-on: Axl kinase (Homo sapiens, UniProt P30530)
Construct: endogenous in cells; host or cells: HeLa cells
Sequence (P30530 26-894): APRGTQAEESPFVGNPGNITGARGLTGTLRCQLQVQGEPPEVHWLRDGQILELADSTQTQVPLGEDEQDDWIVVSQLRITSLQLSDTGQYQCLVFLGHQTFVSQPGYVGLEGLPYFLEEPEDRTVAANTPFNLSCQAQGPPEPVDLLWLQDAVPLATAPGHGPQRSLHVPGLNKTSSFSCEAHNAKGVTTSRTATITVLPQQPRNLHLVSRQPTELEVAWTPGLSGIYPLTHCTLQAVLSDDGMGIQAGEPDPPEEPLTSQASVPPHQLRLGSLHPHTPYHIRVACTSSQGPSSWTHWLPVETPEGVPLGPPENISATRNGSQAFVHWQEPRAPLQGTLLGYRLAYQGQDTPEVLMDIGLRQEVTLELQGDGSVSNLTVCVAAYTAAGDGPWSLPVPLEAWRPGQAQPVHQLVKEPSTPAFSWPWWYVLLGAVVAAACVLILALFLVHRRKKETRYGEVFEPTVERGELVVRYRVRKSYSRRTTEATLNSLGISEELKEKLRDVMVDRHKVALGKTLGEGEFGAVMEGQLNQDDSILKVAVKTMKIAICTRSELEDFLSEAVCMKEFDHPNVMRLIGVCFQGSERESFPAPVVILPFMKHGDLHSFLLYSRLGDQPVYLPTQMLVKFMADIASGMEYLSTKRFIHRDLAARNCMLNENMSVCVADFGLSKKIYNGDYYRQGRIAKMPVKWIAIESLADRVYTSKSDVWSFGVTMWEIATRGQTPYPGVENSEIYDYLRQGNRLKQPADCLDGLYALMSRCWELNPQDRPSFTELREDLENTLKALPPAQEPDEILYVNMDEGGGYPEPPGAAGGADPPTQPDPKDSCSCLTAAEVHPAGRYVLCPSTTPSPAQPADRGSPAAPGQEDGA
experiment-description: Phospho-Akt in-cell Western assay (Axl antibody cross-linking, Hela cells)
Format: cell-based
experimental-setup: phospho-Akt readout, read-out: IC50, inhibition of Axl kinase
recorded-metric: IC50

Known results for compounds:
Returns the measured IC50 for the input compound. Input: CONC(=O)Cc1ccc(Nc2nc(NC3C4C=CC(C4)C3C(N)=O)c3nc[nH]c3n2)cc1 (racemic) [Compound 228]
> 10 µM

Returns the measured IC50 for the input compound. Input: NC(=O)C1C2C=CC(C2)C1Nc1nc(Nc2cccc(OCc3ccncc3)c2)nc2[nH]ccc12 (racemic) [Compound 223]
< 10 µM

Returns the measured IC50 for the input compound. Input: COc1ccc(Nc2nc(NC3C4C=CC(C4)C3C(N)=O)c3scc(C)c3n2)cc1 (racemic) [Compound 237]
> 10 µM

Returns the measured IC50 for the input compound. Input: CC1CCN(C2CCN(c3ccc(Nc4nc(N[C@@H]5C6C=CC(C6)[C@@H]5C(N)=O)c5sc(C(F)(F)F)cc5n4)cc3F)CC2)CC1 (stereo partly drawn) [Compound 209]
< 5 µM

Returns the measured IC50 for the input compound. Input: NC(=O)C1C2C=CC(C2)C1Nc1nc(Nc2ccc(OCCN3CCCC3)c(Cl)c2)nc2ccccc12 (racemic) [Compound 216]
< 5 µM

Returns the measured IC50 for the input compound. Input: CNC(=O)[C@H]1C[C@H]2CC(C2(C)C)[C@@]1(C)Nc1nc(Nc2ccc(OCCN3CCCC3)cc2)nc2ccsc12 (stereo in doubt) [Compound 197]
< 5 µM

Next:
Returns the measured IC50 for the input compound. Input: Cc1csc2c(NC3C4C=CC(C4)C3C(N)=O)nc(Nc3ccc(S(N)(=O)=O)cc3)nc12 (racemic) [Compound 242]
> 10 µM

Returns the measured IC50 for the input compound. Input: CONC(=O)C1C2C=CC(C2)C1Nc1nc(Nc2cccc(OC)c2)nc2[nH]ccc12 (racemic) [Compound 233]
< 5 µM

Returns the measured IC50 for the input compound. Input: CNC(=O)[C@H]1CC2CC(C2(C)C)[C@@]1(C)Nc1nc(Nc2ccc(N3CCN(C4CCCCC4)CC3)cc2)nc2ccsc12 (stereo in doubt) [Compound 198]
< 5 µM

From: patent US7601713B2
